TEST SUMMARY: soluble on expression in E. coli; label from the status in PepcDB or PDB records
REPORTED METRIC: soluble on expression in E. coli

MGSDKIHHHHHHMTHLDDMALFVEVVKAKGFRGAADALGMPNSTLSRRIGALEKAIGLRLLHRTTRKVEPTEAGLLYYERSKRIVEEARLVHEQLGEMLAQPSGLLRASFPEGFANIFLAPLVAEFARRYPGIRFEFDLSPRLADLVSDPVDVAIRMGEPANSNLIARQLARLPRHLYASPRYLDMLGEPQHPDELVQHECLRLRGSKSDIWTVQNRDETVDVAVGGRFLLNSVGMIQRLAALDMGIAILAESIVTDDVAQGRLRRVLPQWEATPVPVYALTETRLLPAKTQRFIDFLREHLSSI not soluble
MQILKAIGLLMEYPDDELWECRDEALTLIQHDAPMLADFTRELLYAPLLDKQAEWCEVFDRGRATSLLLFEHVHAESRDRGQAMVDLLSQYETVGLHLNCRELPDHLPLYLEYLSVLPEAEAREGLQNIAPILALLGGRLKQRGAPWYQLFDALLTLAGSTLTSDSVTKQIIQESRDDTRQALDAVWEEEQVKFIEDNATTCDSSPLHHYQRRFSQDAAPQYVDVSAGGPK not soluble
MSLVVVSDVFVSVRGRVMLNVEAMNMTESVGNYVKHRRVPVVLPDAKYTTYFVPAISGESIAHGFQEVLAEVGKKNGLKVCKLCEKGIFLKSTNENVFKESFSSDPPKDDFEFEKTVIENCIVEDVGGFLYAPRAGGNVKRTSNFYTGYMIPVRESIEGAVIEPQLHSRYALGTPFVEGGQGQMIYYVELSSAVYTFSFDLDTRYIGRTTFSYEKAGTEVGKRSERINAALEALKKFLIEFAFGAKKTRFLPVMEWDSLVVAVSDDVWTVPSPYTAGYIDNARKKKEKVNFNTKLFVYPEGGSFEEVVVEAIEEAKERAGKEGHHHHHH soluble
MGSDKIHHHHHHMKHAFLIIAHNEYPVLEVLLSMLDDERNDIYLHIDKRATELFQQIKKVKMQKAGFYLIENPIKVYWGDISQVQVEYLLFETALSHGPYAYYHLLSGTDLPIKSQDYIHAFFQQNAGKEFVGFWQDAAHQRDLERKVFRYYFFTKRLKDKEHLLHGITALIRNLILAVQKISHYRRKQTFEFKKGGNWISITENAVKYLLQYKEIVLNRMKYTLCADEIFIQTILWNSPFRERMHCTNNANTGSMREIDWEHGSPYIWQDHDYQTLINSNKIFARKFNSNQMGVVYKIQKLYLKQVPK not soluble
MSLKTELTLLEQTLTLHRFPKRNNETLQAWDAGDEYLIQHVEQLALPESSHIVIINDHFGTLSCWFSQKHKVSMMSDSYIAHQATQANLQQNQRPPVQLLTTLDPVPNDASVVLLQLPKSNRHLVWILSQLRKALSPNIPIIAVNKAKEIHTSTLNLFEKHLGPTTTSLAWKKHRLVFSSATVNPANEVNPECGWSIEPYAITLTNLPNVYSGESLDLGSRFILEHLPADPTLEDFIDLGCGNGVLSVRLGQLNPQAKITCVDESFMAIASAQKNLHDNLGKRDIHCIANNCLDGFPAHSSSMIVCNPPFHQQQTITDHIAWQMFCDSKHVLKKGGKLWVIGNRHLGYDVKLARLFGKSHVRVIANNSKFVILQAIKSEGHHHHHH soluble
MSLTVERVSAPTPAAFVDAANAAFRNGAVLSVQARCEVEYNGRTSGYLGDGDRLLVAKPDGTFLVHQPTGHKPVNWMPGGGTVEARTSQGDAVLLARRSNPTERVETRLHEVYGVTRFDAEDGATYEESGTEAEMHEYIEANPDALEAGLRIVEHERETKYGFIDFYAVDGDGTPVVIEVKRIQATLNHFDQLKRYVDRYAETNDDVRGMLVAPSASERVTRALRDNGLEFVALAEFGLDAKGATEAKLTDFEGHHHHHH soluble
MGHHHHHHSHMLYVRCGTVGSRMFLVYVSYLINTTIEEKEIVCKCHKDETVTIETVFPFDVAVKFVSTKFEHLERVYADIPFLLMTDLLSASPWALTIVSSELQLAPSMTTVDQLESQVDNVILQTGESASECFCLQCPSLGNIEGGVATGHYIISWKRTSAMENIPIITTVITLPHVIVESIPLHVNADLPSFGRVRESLPVKYHLQNKTDLVQDVEISVEPSDAFMFSGLKQIRLRILPGTEQEMLYNFYPLMAGYQQLPSLNINLLRFPNFTNQLLRRFIPTSIFVKPQGRLMDDTSIAAA not soluble
MFYLSELEHSLRVPPHLLNLPLEDAIKSVLQNVFLDKVLADLGLCVSIYDIKSVEGGFVLPGDGAATYKVGLRIVVFRPFVGEVIAAKFKESDANGLRLTLGFFDDIYVPAPLMPKPNRCEPDPYNRKQMIWVWEYGEPKEDYIVDDACQIKFRVESISYPSVPTERAEDAKPFAPMVVTGNMDDDGLGPVSWWDSYEQVDQEE soluble
MNIGIIGTGNMGNILIDAFLETRAVKPSCLTIINRTPAKAYHIKEKYPSVHIAKTIPEVIEQSQLIFICVKPIDIYPILKKYAEHFSDETCLVSITSPISPSQLETLVPCHVARIIPSITNRALSGASLFTFGDNCSEEWQQKLLRLFKNISTPLVIEEDITRVSSDIASCGPAFFSYLLQCFINAAVDKTNITHEEATTLVSEMVVGMGKLLEKEIFTLPTLQEKVCVKGGVTGEGIRVLEEHVGDMFHKLIERTHEKFDEDLECVDQQFNKHT not soluble
MAHHHHHHMADGKAENELMEIEEIAVSDGGAARFAPVEVKSGEEKYNIVWEETGKLLRFDEGENAWKERGQGMAKILQKKEDSGVYMFVFRREGVGKLAAQHYLLRGMTIKVHPQSEKALLWTAFKDYSDDEEGFPERFVLRFASKELADSGLKAFNDALSKTTT soluble

----------
TEST SUMMARY: soluble on expression in E. coli; label from the status in PepcDB or PDB records
REPORTED METRIC: soluble on expression in E. coli

MGSDKIHHHHHHMIEKPNAICLKNRKIIKVTGEEATHFLQALITTDVKKIGLQEIFPGALLSPQGKVLADFLIGKREDGYFIDIFSSLSDLLYKRLLLYKMRTKVEIMQPLQEFVTVSWENETDSLNFYSSFIDKRFPAKEKIIRIYGETPFLASECHDNWNRLRIRYAIPESDKDYEIGKVFPHDINYDQINGLAFNKGCYIGQEVVSRMHHRRAARRRILLVKSQHELIPGANIVAGTKILGSLGTCAANEALALMRIDHIKDAMDHNTPFTVKDVPVTISIAENMNFTFPESTV not soluble
GAMEKFKTLLYDIPIECMEVSEEIISYAKLQLGKKLNDSIYVSLTDHINFAIQRNQKGLDIKNALLWETKRLYKDEFAIGKEALVMVKNKTGVSLPEDEAGFIALHIVNAELNEEMPNIINITKVMEEILSIVKYHFKIEFNEESLHYYRFVTDLKFFAQRLFNGTHMESEDDFLLDTVKEKYHRAYECTKKIQTYIEREYEHKLTSDELLYLTIDIERVVKQA soluble
MAEDLYKRLNTVDRLFTLALDLHSHTDLAAQTLMKSGKVHSIERVETDMLYQNHDKKFHLRSREFLDFPQNYCDLIVSLLSLQLTNDTPGVLSQIKNILKPDGLFLAVMAGVGTLSELRECLLQAEIEIYGGASPRIYPFADIRAVGALLQRVGFALPVADIEDVTIRYDTMFDLINDLRAMGMQNALINRSRRPVSKRFFLRAAEIYAKRFSDLDGRIRAHFSFIWLSGWAPHPNQQKPIQPGSAQISLADVLVKQSKKT not soluble
GPGSMEGSGSYRLKRGRDELSTPPASGNFPASDQRGTQNLLRCPWCPNGHLMRPAAKSPTNNSKEEGTHLCTNRSSCPCGAVIDQDRTMSFSCIDGSDLIRNFYNALDDHLETCQIVSQTPSQRDWAPWSIVAERSILFADPSNRKQRHSVDCSPPSLSPDPKGPVFYFLHCDNCGEKEFVC not soluble
PSIKSAIQGKPVNPLNVSPTRLPILTADEKEFDVKIIVTGDRNQLADLEYVDEDFSTGLTMYTEVEEDIHLSASNLELYVGLVNWICSEYGFPSLDDGAFQRLLLAGMRLTEDQH not soluble
MGSDKIHHHHHHMQRVRQICVVGGSGFVGSALVHRLSTAGYDVKVLTRRRESSKHLILLPNVQVTECDVFNEASLSGQLHGQDAVINLAGILHESGNATFESIHVDLATRIADICCKQGVPRLLHMSALKASADAKSAYLRSKAAGEQAVLRRADELQVTVFRPSVIFGRGDHFLSMLANVVNMMPVVAVAKPNAKFQPIWVEDVAYVFLTALENVSTYGRSIDLGGPQVYTLKQLIELTALLLGKKRRIVSLNDKLSYYQAYALELMPFKLMTRDNLLSMEVDSVCDGPISEFFGHSLASLEAIAPEYIAGETPRSAYERFRSLAGRTFSRR not soluble
MEATLPVLDAKTAALKRRSIRRYRKDPVPEGLLREILEAALRAPSAWNLQPWRIVVVRDPATKRALREAAFGQAHVEEAPVVLVLYADLEDALAHLDEVIHPGVQGERREAQKQAIQRAFAAMGQEARKAWASGQSYILLGYLLLLLEAYGLGSVPMLGFDPERVRAILGLPSRAAIPALVALGYPAEEGYPSHRLPLERVVLWR soluble
